- system_tested: human muscarinic acetylcholine M3 receptor (M3-ACh) (Homo sapiens, UniProt P20309)
- Sequence (P20309 whole entry): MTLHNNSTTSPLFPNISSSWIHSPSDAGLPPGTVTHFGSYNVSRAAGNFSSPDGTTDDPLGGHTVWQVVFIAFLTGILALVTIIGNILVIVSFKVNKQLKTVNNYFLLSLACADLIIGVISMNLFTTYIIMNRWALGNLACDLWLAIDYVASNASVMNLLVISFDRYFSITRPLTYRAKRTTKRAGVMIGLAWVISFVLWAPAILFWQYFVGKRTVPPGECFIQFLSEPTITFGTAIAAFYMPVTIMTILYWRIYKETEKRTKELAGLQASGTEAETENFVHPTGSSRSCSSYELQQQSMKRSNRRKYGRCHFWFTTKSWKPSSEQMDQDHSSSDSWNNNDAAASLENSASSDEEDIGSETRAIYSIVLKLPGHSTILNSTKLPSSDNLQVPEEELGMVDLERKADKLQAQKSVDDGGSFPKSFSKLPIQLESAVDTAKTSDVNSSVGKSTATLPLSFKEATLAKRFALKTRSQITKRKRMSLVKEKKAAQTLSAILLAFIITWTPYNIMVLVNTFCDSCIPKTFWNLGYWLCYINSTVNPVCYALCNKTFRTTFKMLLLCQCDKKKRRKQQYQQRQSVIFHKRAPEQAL
- protocol_description: biochemical
- Type: binding
- test_context: M3 binding IC50
pIC50: −log10 of the molar value.
Property: pIC50; scope: individual compounds
measured_property: pIC50

>>> observed("O=C(O[C@H]1C[N+]2(Cc3ccc(F)c(F)c3)CCC1CC2)C1(c2ccccc2)CCCCCC1 [Example 8]")
"< 8.00"
>>> observed("O=C(O[C@H]1C[N+]2(Cc3ccc(C(F)(F)F)o3)CCC1CC2)C1(c2ccccc2)CCCCCC1 [Example 9]")
"< 8.00"
>>> observed("O=C(C[N+]12CCC(CC1)[C@@H](OC(=O)C1(c3ccccc3)CCCCCC1)C2)Nc1cccnn1 [Example 17]")
"> 8.70"
>>> observed("Cc1cc(NC(=O)C[N+]23CCC(CC2)[C@@H](OC(=O)C2(c4ccccc4)CCCCCC2)C3)on1 [Example 39]")
"> 8.70"
>>> observed("O=C(O)C[N+]12CCC(CC1)[C@@H](OC(=O)C1(c3ccccc3)CCCCCC1)C2 [Example 34]")
"< 8.00"
>>> observed("O=C(O[C@H]1C[N+]2(CCc3ccc4ccccc4c3)CCC1CC2)C1(c2ccccc2)CCCCCC1 [Example 23]")
"> 8.70"
>>> observed("O=C(O[C@H]1C[N+]2(CCCOc3ccccc3)CCC1CC2)C1(c2ccccc2)CCCCCC1 [Example 3]")
"> 8.70"
>>> observed("NC(=O)C[N+]12CCC(CC1)[C@@H](OC(=O)C1(c3ccccc3)CCCCCC1)C2 [Example 36]")
"> 8.70"
